Catalogue of Mean relative activity readings, one per entry.
- System: K562 CRISPRi cells
- measurementNotes: Constant region variant library pooled growth screen, K562
- Assay type: cell-based, human
- statedConditions: sgRNA constant region variants; activity relative to the original, un-modified constant region cr995
The reply should be a number, written without any unit.

Answered examples (4):
Tell us which Mean relative activity value is on record for cr950 (nucleic acid, listed as DNA, chemistry not fully specified) guide: GTTTAAGAGCTAAGCTGGAAACAGCATAGCTAGGTTAAATAAGGCTAGTCCGTGATCAACTTGAAAAAGTGGCACCGAGTCGGTGCT 0.0224

Please indicate Mean relative activity recorded for cr622 (nucleic acid, listed as DNA, chemistry not fully specified) guide: GTTTAAGAGCTAAGCTGGAAACAGCATAGCAAGTTTAAATAAGGCTAGTCCGTTATCAGCTGGAAACAGCGGCACCGAGTCGGTGCT 1.099

Entry cr651 (nucleic acid, listed as DNA, chemistry not fully specified) guide: GTTTAAGAGCTAAGCTGGAAACAGCATAGCAAGTTTAAATAAGGCTAGTCCGTTTGCAACTTGAAAAAGTAGCACCGAGTCGGTGCT needs its Mean relative activity filled in; supply it. 0.5637

Read off the recorded Mean relative activity for cr427 (nucleic acid, listed as DNA, chemistry not fully specified) guide: GTTTAAGAGCTAAGCTGGAAACAGCATAGCAAGTTTAAATAAGGCTAGTCCGTTATAAACTTGAAAAAGTGGCACCGAATCGGTGCT 0.5383

More entries:
Identify measured Mean relative activity corresponding to cr685 (nucleic acid, listed as DNA, chemistry not fully specified) guide: GTTTAAGAGCTAAGCTGGAAACAGCATAGCAAGTTTAAATAAGGCTAGTCCGTTATCAGCTTGAAAAAGTGGCACCGAGTCGGTGCT 1.041

For cr515 (nucleic acid, listed as DNA, chemistry not fully specified) guide: GTTTAAGAGCTAAGCTGTAAACAGCATAGCAAGTTTAAATAAGGCTAGTCCGTTATCAACTTGAAAAAGTGGCACCGAGTCGGTGCT , write its Mean relative activity. 1.027

For the molecule cr677 (nucleic acid, listed as DNA, chemistry not fully specified) guide: GTTTAAGAGCTAAGCTGGAAACAGCATAGCAAGTTTAAATTAGGCTAGTCCGTTATCAACTTGAAAAAGTGGCACCGAGTCGGTGCT , give its measured Mean relative activity value. 0.04623
